assay_explanation: Ibrutinib and SMT-conjugate pharmacokinetics in human subjects (plasma of patients A and B)
test_settings: human, 420 mg, Concentration, patient A, sample ID 14, T 3.8 h, 1xdd 420mg, group max
reported_endpoint: concentration at 3.8 h (nM)

P. Nc1ncnc2c1c(-c1ccc(Oc3ccccc3)cc1)nn2[C@@H]1CCCN(C(=O)C(O)CO)C1 (stereo partly shown) [DHI, dihydrodiol-ibrutinib]
Q. Nc1ncnc2c1c(-c1ccc(Oc3ccccc3)cc1)nn2[C@@H]1CCCN(C(=O)CCSC[C@H](N)C(=O)O)C1
R. Nc1ncnc2c1c(-c1ccc(Oc3ccccc3)cc1)nn2[C@@H]1CCCN(C(=O)CCSC[C@H](N)C(=O)NCC(=O)O)C1
S. Nc1ncnc2c1c(-c1ccc(Oc3ccccc3)cc1)nn2[C@@H]1CCCN(C(=O)CCSC[C@H](NC(=O)CC[C@H](N)C(=O)O)C(=O)NCC(=O)O)C1
Q: Sort ascending by concentration at 3.8 h: all records listed above. Answer by listing the labels in the requested order.
Result: S, Q, R, P
